Below, each of the sequences is paired with its reported phosphorylation enrichment value.
- EXPERIMENTAL_TARGET: Fyn (UniProt P06241)
- Sequence (P06241 whole entry, looked up): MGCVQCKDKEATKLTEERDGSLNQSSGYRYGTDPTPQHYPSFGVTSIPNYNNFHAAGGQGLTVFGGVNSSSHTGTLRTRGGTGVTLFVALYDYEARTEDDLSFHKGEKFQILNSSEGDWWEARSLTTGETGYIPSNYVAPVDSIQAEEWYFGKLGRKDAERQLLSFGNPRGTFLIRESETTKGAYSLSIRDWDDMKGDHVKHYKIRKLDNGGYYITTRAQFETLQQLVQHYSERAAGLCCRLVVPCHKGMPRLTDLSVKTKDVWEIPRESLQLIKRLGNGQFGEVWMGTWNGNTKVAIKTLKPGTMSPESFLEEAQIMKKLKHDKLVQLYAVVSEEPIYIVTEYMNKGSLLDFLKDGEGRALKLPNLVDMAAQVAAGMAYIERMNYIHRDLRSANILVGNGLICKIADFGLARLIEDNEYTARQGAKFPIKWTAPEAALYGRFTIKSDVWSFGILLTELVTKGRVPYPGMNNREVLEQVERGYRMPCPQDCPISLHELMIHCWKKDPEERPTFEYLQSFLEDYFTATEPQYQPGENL
- ASSAY: phosphorylation enrichment, bacterial display (enrichment ratio); higher = better substrate or ligand; peptides without Tyr show the background;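 further: 11-residue human phosphosite peptides and single-mutation variants displayed on the E. coli surface, counted by deep sequencing, each peptide's frequency after selection divided by its frequency in the unselected input library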;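 further: frequency after pTyr selection over input frequency; kinase dosed for 20-30% of maximal phosphorylation in three min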
Would you mind answering with just the numeric figure?

Consider the reported phosphorylation enrichment for these sequences:
SEQUENCE_TEXT: SVVVPYERPEV [TP53_Y220_P222R]
phosphorylation enrichment: 0.475
//
SEQUENCE_TEXT: KLIETYFSKNY [PLP1_Y50]
phosphorylation enrichment: 0.355
//
SEQUENCE_TEXT: PLQKIYNFNVL [SLC4A1_Y553_T552I_YF]
phosphorylation enrichment: 1.43
//
SEQUENCE_TEXT: CQAHGYSCQLI [STK11_Y156_F157S]
phosphorylation enrichment: 0.648
//
SEQUENCE_TEXT: DTNIAYCLHPR [POMT1_Y581_W582C]
phosphorylation enrichment: 0.541

stdin: Query: phosphorylation enrichment; subject: AFQGKYTPSGQ [ALDOA_Y343_C339Y_YF]
stdout: 0.273

stdin: Query: phosphorylation enrichment; subject: KELAPYDENRF [RPS19_Y48_W52R]
stdout: 0.485

stdin: Query: phosphorylation enrichment; subject: ISMAGYSIPEL [EDAR_Y406_T403M]
stdout: 0.448

###

- EXPERIMENTAL_TARGET: EPHB2 (UniProt P29323)
- Sequence (P29323 whole entry, looked up): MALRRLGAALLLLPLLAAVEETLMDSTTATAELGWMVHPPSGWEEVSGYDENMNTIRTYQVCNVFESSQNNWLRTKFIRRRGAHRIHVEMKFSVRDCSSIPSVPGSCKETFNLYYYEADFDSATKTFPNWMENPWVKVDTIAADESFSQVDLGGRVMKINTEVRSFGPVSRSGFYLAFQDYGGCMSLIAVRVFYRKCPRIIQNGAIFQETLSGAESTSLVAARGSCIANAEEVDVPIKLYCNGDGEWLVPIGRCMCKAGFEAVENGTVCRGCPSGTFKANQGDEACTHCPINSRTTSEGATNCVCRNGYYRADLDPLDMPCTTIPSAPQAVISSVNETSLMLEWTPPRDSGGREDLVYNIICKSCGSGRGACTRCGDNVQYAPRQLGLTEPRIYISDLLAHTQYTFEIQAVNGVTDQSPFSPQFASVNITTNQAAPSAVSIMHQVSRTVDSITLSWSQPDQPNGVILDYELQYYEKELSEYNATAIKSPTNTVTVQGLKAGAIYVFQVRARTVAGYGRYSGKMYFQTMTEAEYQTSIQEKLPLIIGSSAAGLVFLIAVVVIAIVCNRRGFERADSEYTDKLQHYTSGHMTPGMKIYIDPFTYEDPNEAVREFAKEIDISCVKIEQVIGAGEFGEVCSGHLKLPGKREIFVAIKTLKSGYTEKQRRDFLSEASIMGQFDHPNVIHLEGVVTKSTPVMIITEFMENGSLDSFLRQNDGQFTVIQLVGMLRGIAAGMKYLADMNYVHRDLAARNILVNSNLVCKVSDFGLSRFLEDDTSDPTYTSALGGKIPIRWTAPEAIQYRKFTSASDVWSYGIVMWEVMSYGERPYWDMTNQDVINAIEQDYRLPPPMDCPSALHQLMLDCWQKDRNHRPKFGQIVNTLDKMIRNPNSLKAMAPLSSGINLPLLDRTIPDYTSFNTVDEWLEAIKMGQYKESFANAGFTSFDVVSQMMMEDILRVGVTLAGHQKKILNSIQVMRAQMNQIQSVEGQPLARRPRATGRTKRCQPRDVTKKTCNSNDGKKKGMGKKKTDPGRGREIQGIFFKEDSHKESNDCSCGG
- ASSAY: phosphorylation enrichment, bacterial display (enrichment ratio); higher = better substrate or ligand; peptides without Tyr show the background
Given measured phosphorylation enrichment, output label 1 if it is greater than or equal to 0.6 and label 0 if not.

Example entries begin here.
SEQUENCE_TEXT: ALWFIYSHTRS [ENG_Y614_YF]
LABEL_VALUE: label 0

SEQUENCE_TEXT: PYIDSYEKDVA [PGM1_Y521_L516P]
LABEL_VALUE: label 1

SEQUENCE_TEXT: PTTKTYFLHFD [HBA1_Y43_P45L]
LABEL_VALUE: label 1

SEQUENCE_TEXT: VRQQVYKKVEE [HADHA_Y283]
LABEL_VALUE: label 0

SEQUENCE_TEXT: SLIDGYFRLTE [JAK2_Y372_A377E_YF]
LABEL_VALUE: label 0

SEQUENCE_TEXT: TVVGLYQKSSL [MYH7_Y609]
LABEL_VALUE: label 1

SEQUENCE_TEXT: RNDRVYQPLRD [CD3D_Y149_Q147R]
LABEL_VALUE: label 0

SEQUENCE_TEXT: ATARPYSPFII [LRP5_Y1528_R1529S_YF]
LABEL_VALUE: label 0

stdin: Form field: phosphorylation enrichment at least 0.6? Entry: CTTFHYNYMCN [TP53_Y234_I232F]
stdout: label 1

stdin: Form field: phosphorylation enrichment at least 0.6? Entry: KWLEQYTQAIE [LSP1_Y234_Q229K]
stdout: label 1

stdin: Form field: phosphorylation enrichment at least 0.6? Entry: KKLAEYGPQGK [CLCA1_Y147_R152K]
stdout: label 0

stdin: Form field: phosphorylation enrichment at least 0.6? Entry: HYGNNYRDVLQ [MACC1_Y803]
stdout: label 0

stdin: Form field: phosphorylation enrichment at least 0.6? Entry: IWGKKYPTCNS [PTPRZ1_Y53_N48I]
stdout: label 0
